TGT: alpha-2-receptor
EXPERIMENT DESCRIPTION: Radioligand binding, alpha-2 adrenoceptor ([3H]-rauwolscine, rat cerebral cortices)
pKi: −log10 of the molar value. Where a name gives a salt, the structure may show the parent alone.
MEASURED ENDPOINT: pKi

// worked examples, pKi included
COMPOUND | MEASURED ENDPOINT | ENDPOINT VALUE
COc1ccc2c(c1)CCN(CCCc1ccccc1)C2 [Example 7, hydrochloride] | pKi | 8.23
COc1ccc2c(c1)CCN(CCCc1cccc(F)c1)C2 [Example 5, hydrochloride] | pKi | 8.34
Cc1ccc2c(c1)CCN(CCCc1ccccc1)C2 [Example 13, Hydrochloride] | pKi | 8.25

P: COc1ccc2c(c1)CCN(CCCc1ccco1)C2 [Example 6, hydrochloride]
Q: COc1cccc(CCCN2CCc3cc(OC)ccc3C2)c1 [Example 8, hydrochloride]
R: COc1ccc2c(c1)CCN(CCCc1cccs1)C2.Cl [Example 2, hydrochloride]
Please put the entries in order of rising pKi. To answer, arrange all of the labels according to the requested order.
Q, R, P
